Collected Activity values appear next to each entry.
molecular target: Amyloid-beta precursor protein (Homo sapiens); assay: Inhibition of amyloid beta (1 to 42) aggregation in HBP assessed as beta sheet formation at 1:20 protein to compound ratio after 48 hrs by Th-T fluorescence assay relative to control; parameters: scale not given: the % may be the effect or the level left
*1 amine or outer side, *2 acyl side, *3 side chain or, on linkers, in order; H or OH if unused. Where a SMILES comes first, the peptide text is derived from it. The star is where a group is joined. X7 = O=C(OC[C@@H](COS(=O)(=O)O)OS(=O)(=O)O)*; X6 = O=C(OC[C@H](COS(=O)(=O)O)OS(=O)(=O)O)*; X3 = O=C(OCCCOS(=O)(=O)O)*; X9 = O=S(=O)(O)OCCCCN*; CO = O=C([*:1])[*:2]; X4 = OC[C@@H](O)CN*; X13 = O=C(OCCCO)*

molecule	measurement.unit	Activity
CC(C)C[C@H](NC(=O)NC[C@H](O)CO)C(=O)N1CCC[C@H]1C(=O)N[C@@H](Cc1ccccc1)C(=O)N[C@@H](Cc1ccccc1)C(=O)N[C@@H](CC(=O)O)C(N)=O ({X4-CO}-LPFFD-NH2)	%	98.7
CC(C)C[C@H](NC(=O)OCC(CO)CO)C(=O)N1CCC[C@@H]1C(=O)N[C@@H](Cc1ccccc1)C(=O)N[C@@H](Cc1ccccc1)C(=O)N[C@@H](CC(=O)O)C(=O)O	%	87.9
CC(C)C[C@H](NC(=O)OCCCO)C(=O)N1CCC[C@H]1C(=O)N[C@@H](Cc1ccccc1)C(=O)N[C@@H](Cc1ccccc1)C(=O)N[C@@H](CC(=O)O)C(N)=O (X13-LPFFD-NH2)	%	92.9
CC(C)C[C@H](NC(=O)OCC(COS(=O)(=O)O)CS(=O)(=O)O)C(=O)N1CCC[C@@H]1C(=O)N[C@@H](Cc1ccccc1)C(=O)N[C@@H](Cc1ccccc1)C(=O)N[C@@H](CC(=O)O)C(=O)O (some centres undefined)	%	94.7
CC(C)C[C@H](NC(=O)OC[C@H](COS(=O)(=O)O)OS(=O)(=O)O)C(=O)N1CCC[C@H]1C(=O)N[C@@H](Cc1ccccc1)C(=O)N[C@@H](Cc1ccccc1)C(=O)N[C@@H](CC(=O)O)C(N)=O (X6-LPFFD-NH2)	%	95.1
CC(C)C[C@H](NC(=O)OC[C@@H](COS(=O)(=O)O)OS(=O)(=O)O)C(=O)N1CCC[C@H]1C(=O)N[C@@H](Cc1ccccc1)C(=O)N[C@@H](Cc1ccccc1)C(=O)N[C@@H](CC(=O)O)C(N)=O (X7-LPFFD-NH2)	%	96.3
CC(C)C[C@H](NC(=O)OCCCOS(=O)(=O)O)C(=O)N1CCC[C@H]1C(=O)N[C@@H](Cc1ccccc1)C(=O)N[C@@H](Cc1ccccc1)C(=O)N[C@@H](CC(=O)O)C(N)=O (X3-LPFFD-NH2)	%	107
CC(C)C[C@H](NC(=O)OCC(CO)CO)C(=O)N1CCC[C@H]1C(=O)N[C@@H](Cc1ccccc1)C(=O)N[C@@H](Cc1ccccc1)C(=O)N[C@@H](CC(=O)O)C(=O)O	%	76.4
CC(C)C[C@H](NC(=O)NCCCCOS(=O)(=O)O)C(=O)N1CCC[C@H]1C(=O)N[C@@H](Cc1ccccc1)C(=O)N[C@@H](Cc1ccccc1)C(=O)N[C@@H](CC(=O)O)C(N)=O ({X9-CO}-LPFFD-NH2)	%	100

Values from ChEMBL document CHEMBL3217585
